Entry source: ChEMBL document CHEMBL1129752

Reported pEC50 is given for each of the following molecules.
System: IMR-32
procedure text: Ability to stimulate Rb+ efflux from human IMR-32 cell preparations containing human alpha3-betaX receptors
Format: functional, cell-based
Quick note: pEC50 values are minus log10 of concentrations in mol/L.

As a guide, the following entries are already answered.
CN1CC[C@H]1COc1cccnc1 = 4.52
c1cncc(OC[C@H]2CCCN2)c1 = 5.24
c1cncc(OC[C@H]2CCN2)c1 = 5.96
c1cncc(OC[C@@H]2CCN2)c1 = 6.15
CN1CC[C@@H]1COc1cccnc1 = 4.42

Input: Find pEC50 (IMR-32) for the entry Clc1ccc(C2CC3CCC2N3)cn1 (stereo unspecified) [EPIBATIDINE]
Output: 8.15
